The reported measurements were obtained from patent US20040192641A1.

The entries below are paired with their reported LD50.
# protocolDescription: Acute toxicity LD50
# experimentalSetup: mouse, in vivo, ip
Field format: number, assumed mg/kg, no unit text.

>>> print(df.to_string())
                                   compound  quantityname  numericvalue
0  COC(=O)C[C@](O)(CCCC(C)(C)O)C(=O)O[C@@H]1C(OC)=C[C@]23CCCN2CCc2cc4c(cc2[C@H]13)OCO4 [HHT, Homoharringtonine]          LD50           3.3

Below: the item to evaluate.
Q: Complete the entry with LD50 for CC[C@@]1(O)C(=O)OCc2c1cc1n(c2=O)Cc2cc3ccccc3nc2-1 [CPT, Camptothecin]
Ans: 76
